# TEST SYSTEM: KAT2A (Homo sapiens (Human), UniProt Q92830)
# Sequence (Q92830 whole entry): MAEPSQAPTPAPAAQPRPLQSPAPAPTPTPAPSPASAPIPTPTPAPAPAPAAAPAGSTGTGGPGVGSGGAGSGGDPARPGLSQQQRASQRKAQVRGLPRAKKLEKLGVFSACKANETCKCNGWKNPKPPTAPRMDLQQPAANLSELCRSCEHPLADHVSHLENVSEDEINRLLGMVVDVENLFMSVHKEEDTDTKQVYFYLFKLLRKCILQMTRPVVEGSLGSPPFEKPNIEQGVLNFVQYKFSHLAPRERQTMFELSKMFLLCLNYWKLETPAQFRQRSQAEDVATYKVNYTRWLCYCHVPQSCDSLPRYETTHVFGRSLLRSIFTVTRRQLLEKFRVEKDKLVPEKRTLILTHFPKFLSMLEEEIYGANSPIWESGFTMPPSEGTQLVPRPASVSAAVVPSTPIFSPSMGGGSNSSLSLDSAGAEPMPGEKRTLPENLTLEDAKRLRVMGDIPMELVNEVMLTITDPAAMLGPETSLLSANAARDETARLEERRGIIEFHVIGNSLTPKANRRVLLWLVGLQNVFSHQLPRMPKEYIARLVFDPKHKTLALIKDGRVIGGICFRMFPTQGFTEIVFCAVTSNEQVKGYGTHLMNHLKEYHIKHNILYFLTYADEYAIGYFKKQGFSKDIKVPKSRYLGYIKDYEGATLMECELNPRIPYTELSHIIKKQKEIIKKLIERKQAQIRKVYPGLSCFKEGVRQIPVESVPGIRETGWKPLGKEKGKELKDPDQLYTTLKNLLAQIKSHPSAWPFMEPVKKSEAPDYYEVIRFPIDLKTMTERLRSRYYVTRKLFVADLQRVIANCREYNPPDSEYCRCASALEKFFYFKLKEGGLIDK
# ASSAY REMARKS: KAT2A acetyltransferase biochemical assay (RapidFire mass spectrometry, AcCoA to CoA)
# REPORTED CONDITIONS: read-out: KAT2A Ki at 1 μM AcCoA, 5 μM H3 1-21 peptide, 0.5 nM KAT2A, 90-minute reaction
pKi: −log10 of the molar value.
OBSERVABLE: pKi

[P] CCS(=O)(=O)NC(=O)C(C)(C)c1ccc(O[C@@H]2CC[C@@H](NC(=O)[C@@]3(F)CNCC(C)(C)C3)C2)c(-c2cccc(F)c2C2CCC2)c1 (single isomer, unassigned) [Example B21]
[Q] CC1(C)C[C@@H](C(=O)N[C@@H]2CC[C@@H](Oc3cccc(C(=O)O)c3-c3cccc(F)c3C3CCC3)C2)CN1 (atropisomer, axis not shown) [Example H10]
[R] CC(C)(C(=O)O)c1ccc(O[C@@H]2CC[C@@H](NC(=O)[C@@]3(F)CNC4(CCCC4)C3)C2)c(-c2cccc(F)c2C2CCC2)c1 (single isomer, unassigned)
[S] CC(C)c1c(F)cccc1-c1cc(C(C)(C)C(=O)NS(C)(=O)=O)ccc1O[C@@H]1CC[C@@H](NC(=O)[C@@]2(F)CNC3(CCC3)C2)C1 (single isomer, unassigned) [Example C20]
[T] CC1(C)CNC[C@](F)(C(=O)N[C@@H]2CC[C@@H](Oc3ccc(C(C)(C)C(=O)O)cc3-c3cccc(F)c3C3CCC3)C2)C1 (single isomer, unassigned) [Example A16]
Order by pKi, ascending. Please, when replying, give the labels in the order that was requested.
Q, R, S, P, T

###

# TEST SYSTEM: KAT2A (Homo sapiens (Human))
# ASSAY REMARKS: KAT2A acetyltransferase biochemical assay (RapidFire mass spectrometry, AcCoA to CoA)
# REPORTED CONDITIONS: read-out: KAT2A Ki at 1 μM AcCoA, 5 μM H3 1-21 peptide, 0.5 nM KAT2A, 90-minute reaction
pKi: −log10 of the molar value.
OBSERVABLE: pKi

A selection of reference data follows.
MOLECULE: CCc1c(F)cccc1-c1cc(C(C)(C)C(=O)NS(=O)(=O)C(C)C)ccc1O[C@@H]1CC[C@@H](NC(=O)[C@@]2(F)CNC3(CCC3)C2)C1
OBSERVABLE: pKi
VAL: 10.00
--
MOLECULE: CC(C)c1c(F)cccc1-c1cc(C(=O)O)ccc1O[C@@H]1CC[C@@H](NC(=O)[C@@H]2CC(C)(C)CN2C)C1
OBSERVABLE: pKi
VAL: 8.45
--
MOLECULE: O=C(O)c1ccc(O[C@@H]2CC[C@@H](NC(=O)[C@@]3(F)CNC4(CCC4)C3)C2)c(-c2cccc(F)c2C2CCC2)c1
OBSERVABLE: pKi
VAL: 9.96
--
MOLECULE: CC1(C)CNC[C@](F)(C(=O)N[C@@H]2CC[C@@H](Oc3ccc(CC(=O)O)cc3-c3cccc(F)c3C3CCC3)C2)C1 (single isomer, unassigned) [Example A24]
OBSERVABLE: pKi
VAL: 7.81

[P] CN1CC(C)(C)C[C@H]1C(=O)N[C@@H]1CC[C@@H](Oc2ccc(C(C)(C)c3noc(=O)[nH]3)cc2-c2cccc(F)c2C2CCC2)C1
[Q] CN1CC(C)(C)C[C@H]1C(=O)N[C@@H]1CC[C@@H](Oc2cccc(C(=O)O)c2-c2cccc(F)c2C2CCC2)C1 (atropisomer, axis not shown)
[R] CC(C)(C(=O)NS(C)(=O)=O)c1ccc(O[C@@H]2CC[C@@H](NC(=O)[C@@]3(F)CNC4(CCCC4)C3)C2)c(-c2cccc(F)c2C2CCC2)c1 (single isomer, unassigned) [Example C4]
[S] CC(C)n1cc(-c2ccc(O[C@@H]3CC[C@@H](NC(=O)[C@@]4(F)CNC5(CCC5)C4)C3)c(-c3cccc(F)c3C3CCC3)c2)c(C(=O)O)n1 (single isomer, unassigned) [Example J16]
[T] CC1(C)CNC[C@](F)(C(=O)N[C@@H]2CC[C@@H](Oc3ccc(C(C)(C)C(=O)NS(=O)(=O)C4CC4)cc3-c3cccc(F)c3C3CCC3)C2)C1 (single isomer, unassigned)
I would appreciate it if you could sort these 5 molecules by pKi, starting from the smallest number. A ranking is expressed here by listing the labels in the requested order.
T, Q, P, R, S

[P] CN1CC(C)(C)CC1C(=O)N[C@H]1C[C@H](COc2ccc(CC(=O)NS(C)(=O)=O)cc2-c2cccc(F)c2C2CCC2)C1 (stereo partly drawn)
[Q] CC(C)S(=O)(=O)NC(=O)C(C)(C)c1ccc(O[C@@H]2CC[C@@H](NC(=O)[C@@]3(F)CNC(C)(C)C3)C2)c(-c2cccc(F)c2C2CCC2)c1 (single isomer, unassigned) [Example B18]
[R] CC(C)(C(=O)NS(=O)(=O)C1CC1)c1ccc(O[C@@H]2CC[C@@H](NC(=O)[C@@]3(F)CNC4(CCCC4)C3)C2)c(-c2cccc(F)c2C2CCC2)c1 (single isomer, unassigned) [Example B25]
[S] CCc1c(F)cccc1-c1cc(C(C)(C)C(=O)NS(=O)(=O)CC)ccc1O[C@@H]1CC[C@@H](NC(=O)[C@@]2(F)CNC3(CCC3)C2)C1
[T] CCc1c(F)cccc1-c1cc(C(C)(C)C(=O)NS(=O)(=O)C(C)C)ccc1O[C@@H]1CC[C@@H](NC(=O)[C@@]2(F)CNC3(CCCC3)C2)C1 (single isomer, unassigned) [Example C28]
Kindly order the items shown according to pKi, from the highest value down. Response format: the labels, sorted as the prompt asks.
P, Q, R, T, S

[P] CN1CC(C)(C)C[C@H]1C(=O)N[C@@H]1CC[C@@H](Oc2cccc(C(=O)NS(=O)(=O)N(C)C)c2-c2cccc(F)c2C2CCC2)C1 (atropisomer, axis not shown)
[Q] CC1(C)CNC[C@](F)(C(=O)N[C@@H]2CC[C@@H](Oc3ccc(CC(=O)NS(=O)(=O)C4(C)CC4)cc3-c3cccc(F)c3C3CCC3)C2)C1 (single isomer, unassigned) [Example C78]
[R] CN1CC(C)(C)C[C@H]1C(=O)N[C@@H]1CC[C@@H](Oc2ccc(C(C)(C)C(=O)O)cc2-c2cccc(F)c2C2CCC2)C1 [Example D1]
Arrange by pKi, high to low. Return value: ordered labels per request.
Q, R, P
(Q: 10.10, R: 8.39, P: 7.61)

###

# TEST SYSTEM: KAT2B (Homo sapiens (Human))
# ASSAY REMARKS: KAT2B acetyltransferase biochemical assay (RapidFire mass spectrometry, AcCoA to CoA)
# REPORTED CONDITIONS: read-out: KAT2B Ki at 1 μM AcCoA; 1 μM AcCoA, 5 μM H3 1-21 peptide, 0.5 nM KAT2B, 90-minute reaction
pKi: −log10 of the molar value.
OBSERVABLE: pKi

[A] CCc1c(F)cccc1-c1cc(C(C)(C)C(=O)NS(=O)(=O)C(C)C)ccc1O[C@@H]1CC[C@@H](NC(=O)[C@@]2(F)CNC3(CCC3)C2)C1
[B] CC(C)(C(=O)NS(C)(=O)=O)c1ccc(O[C@@H]2CC[C@@H](NC(=O)[C@]3(F)CNC4(CCC4)C3)C2)c(-c2cccc(F)c2C2CC2)c1 (single isomer, unassigned)
Could you tell me which of these two has the smaller pKi figure? First: A Second: B Choose, then provide that item's label.
B

[P] CC1(C)CNC[C@](F)(C(=O)N[C@@H]2CC[C@@H](Oc3ccc(CC(=O)O)cc3-c3cccc(F)c3C3CCC3)C2)C1 (single isomer, unassigned)
[Q] CC(C)c1c(F)cccc1-c1cc(C(C)(C)C(=O)NS(C)(=O)=O)ccc1O[C@@H]1CC[C@@H](NC(=O)[C@@]2(F)CNC3(CCC3)C2)C1 (single isomer, unassigned)
[R] CC1(C)C[C@@](F)(C(=O)N[C@@H]2CC[C@@H](Oc3ccc(C(C)(C)C(=O)NS(C)(=O)=O)cc3-c3cccc(F)c3C3CCC3)C2)CN1 (single isomer, unassigned)
Arrange by pKi, high to low. Submit the labels in the order that the ranking request calls for.
R, Q, P
(R: 9.74, Q: 9.10, P: 8.55)

###

# TEST SYSTEM: KAT2B (Homo sapiens (Human), UniProt Q92831)
# Sequence (Q92831 2-832): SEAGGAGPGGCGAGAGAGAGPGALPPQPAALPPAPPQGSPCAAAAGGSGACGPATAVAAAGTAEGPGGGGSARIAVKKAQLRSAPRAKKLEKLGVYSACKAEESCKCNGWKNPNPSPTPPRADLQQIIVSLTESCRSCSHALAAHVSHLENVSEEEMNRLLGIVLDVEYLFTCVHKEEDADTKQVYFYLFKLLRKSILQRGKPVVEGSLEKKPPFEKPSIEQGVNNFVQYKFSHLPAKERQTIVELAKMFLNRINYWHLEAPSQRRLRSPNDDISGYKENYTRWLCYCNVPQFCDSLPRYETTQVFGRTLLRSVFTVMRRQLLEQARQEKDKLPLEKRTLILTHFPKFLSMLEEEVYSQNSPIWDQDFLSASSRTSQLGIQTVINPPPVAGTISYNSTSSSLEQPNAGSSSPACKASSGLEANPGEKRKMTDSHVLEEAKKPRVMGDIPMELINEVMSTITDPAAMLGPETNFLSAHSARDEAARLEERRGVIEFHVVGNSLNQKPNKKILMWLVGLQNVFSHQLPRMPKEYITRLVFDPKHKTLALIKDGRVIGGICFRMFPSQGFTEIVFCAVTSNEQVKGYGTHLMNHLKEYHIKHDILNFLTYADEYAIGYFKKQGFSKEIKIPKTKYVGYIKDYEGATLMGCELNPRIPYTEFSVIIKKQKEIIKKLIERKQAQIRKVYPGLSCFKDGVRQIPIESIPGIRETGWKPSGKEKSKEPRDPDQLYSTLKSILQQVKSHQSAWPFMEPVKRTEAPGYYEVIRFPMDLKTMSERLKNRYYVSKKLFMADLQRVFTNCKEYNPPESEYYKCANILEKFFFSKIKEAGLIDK
# ASSAY REMARKS: KAT2B acetyltransferase biochemical assay (RapidFire mass spectrometry, AcCoA to CoA)
# REPORTED CONDITIONS: read-out: KAT2B Ki at 1 μM AcCoA; 1 μM AcCoA, 5 μM H3 1-21 peptide, 0.5 nM KAT2B, 90-minute reaction
OBSERVABLE: Ki (nM)

COMPOUND: CC1(C)CNCC(F)(C(=O)N[C@@H]2CC[C@@H](Oc3ccc(C(C)(C)C(=O)NS(=O)(=O)C4CC4)cc3-c3cccc(F)c3C3CCC3)C2)C1 (single isomer, unassigned) [Example B28]
RESULT UNITS: nM
Ki: 0.19

[1] CC1(C)C[C@H](C(=O)N[C@@H]2CC[C@@H](Oc3cccc(C(=O)O)c3-c3cccc(F)c3C3CCC3)C2)CN1 (atropisomer, axis not shown) [Example H9]
[2] CCS(=O)(=O)NC(=O)C(C)(C)c1ccc(O[C@@H]2CC[C@@H](NC(=O)[C@@]3(F)CNC4(CCCC4)C3)C2)c(-c2cccc(F)c2C2CCC2)c1 (single isomer, unassigned) [Example B20]
[3] CN1CC(C)(C)C[C@H]1C(=O)N[C@@H]1CC[C@@H](Oc2ccc(C(C)(C)C(=O)NS(=O)(=O)N(C)C)cc2-c2cccc(F)c2C2CCC2)C1 [Example E4]
[4] CN1CC(C)(C)C[C@H]1C(=O)N[C@@H]1CC[C@@H](Oc2ccc(C(C)(C)C(=O)NS(C)(=O)=O)cc2-c2cccc(F)c2C2CCC2)C1 [Example E1]
Reorder the items by Ki, least to greatest. Form field (ranking): labels in requested order.
2, 3, 4, 1
